# targetDesc: Adenosine receptor A2a (Homo sapiens)
pEC50: −log10 of the molar value.

molSmiles: N#Cc1c(SCc2ncc[nH]2)nc(N)nc1-c1ccccc1
pEC50: 7.35
--
molSmiles: Nc1nc(SCc2ncc[nH]2)nc(-c2ccccc2)n1
pEC50: 6.09

###

# targetDesc: Adenosine receptor A1 (Homo sapiens, UniProt P30542)
# Sequence (P30542 whole entry): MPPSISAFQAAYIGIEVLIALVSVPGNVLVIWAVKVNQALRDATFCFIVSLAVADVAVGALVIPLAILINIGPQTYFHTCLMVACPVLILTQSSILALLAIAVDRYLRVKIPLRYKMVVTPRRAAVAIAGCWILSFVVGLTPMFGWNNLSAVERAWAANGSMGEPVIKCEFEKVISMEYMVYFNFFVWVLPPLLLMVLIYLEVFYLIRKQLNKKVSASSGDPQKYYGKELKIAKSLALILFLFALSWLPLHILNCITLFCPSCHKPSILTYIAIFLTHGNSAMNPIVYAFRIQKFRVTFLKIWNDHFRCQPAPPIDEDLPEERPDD

molSmiles: N#Cc1c(-c2ccccc2)cc(SCc2ncc[nH]2)nc1N
Ki / nM: 417

###

Measured Ki by item
# targetDesc: Adenosine receptor A2a (Homo sapiens, UniProt P29274)
# Sequence (P29274 whole entry): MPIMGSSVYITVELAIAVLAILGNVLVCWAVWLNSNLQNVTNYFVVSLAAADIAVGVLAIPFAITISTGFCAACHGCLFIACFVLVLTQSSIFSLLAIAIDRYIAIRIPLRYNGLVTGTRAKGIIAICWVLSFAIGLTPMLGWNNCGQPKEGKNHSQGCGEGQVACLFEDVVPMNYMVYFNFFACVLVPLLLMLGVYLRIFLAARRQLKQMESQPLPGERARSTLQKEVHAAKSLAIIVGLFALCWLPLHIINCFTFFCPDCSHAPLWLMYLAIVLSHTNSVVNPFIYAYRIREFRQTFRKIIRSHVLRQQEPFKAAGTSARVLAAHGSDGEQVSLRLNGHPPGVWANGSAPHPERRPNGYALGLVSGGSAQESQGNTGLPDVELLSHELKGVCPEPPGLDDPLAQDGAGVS
propertyName: Ki (nM)

molSmiles: Nc1nc(SCc2ncc[nH]2)nc(-c2ccccc2)n1
propertyName: Ki
assayValue: 562

molSmiles: N#Cc1c(SCc2ncc[nH]2)nc(N)nc1-c1ccccc1
propertyName: Ki
assayValue: 10
